Taken from patent US5300279A.

Test: biolocalization of the radionuclide in rats (tissue distribution after tail vein injection)
Assay type: in vivo, male Sprague Dawley rats
Conditions: Ho-166; two hours; comparative; average of 2 rats (MDP, HEDP, PYP), 1 rat (IDP, HDP)
ENDPOINT: % Dose In Liver (% Dose)

{"columns": ["MOLECULE", "ENDPOINT", "QUANTITATIVE_RESULT"],
 "data": [
  ["O=P(O)(O)CP(=O)(O)O.[166Ho+3] [Ho-166 MDP, reference compound]", "% Dose In Liver", 64],
  ["O=P(O)(O)OP(=O)(O)O.[166Ho+3] [Ho-166 PYP, reference compound]", "% Dose In Liver", 67],
  ["CC(O)(P(=O)(O)O)P(=O)(O)O.[166Ho+3] [Ho-166 HEDP, reference compound]", "% Dose In Liver", 1.8],
  ["O=P(O)(O)C(O)P(=O)(O)O.[166Ho+3] [H0-166 HDP, reference compound]", "% Dose In Liver", 2],
  ["O=P(O)(O)NP(=O)(O)O.[166Ho+3] [Ho-166 IDP, reference compound]", "% Dose In Liver", 65]
]}

---

Test: biolocalization of the radionuclide in rats (tissue distribution after tail vein injection)
Assay type: in vivo, male Sprague Dawley rats
Details: Sm-153; rats; 2 hours; average of 5 rats

{"columns": ["SUBSTANCE_SMILES", "% Dose in Blood, % Dose"],
 "data": [
  ["O=P(O)(O)CN(CCO)CCN(CP(=O)(O)O)CP(=O)(O)O.[153Sm+3]", 0.035],
  ["O=P(O)(O)CN(CCN(CP(=O)(O)O)CP(=O)(O)O)CCN(CP(=O)(O)O)CP(=O)(O)O.[153Sm+3]", 0.16],
  ["O=P(O)(O)CN(CCN(CCN(CP(=O)(O)O)CP(=O)(O)O)CCN(CP(=O)(O)O)CP(=O)(O)O)CP(=O)(O)O.[153Sm+3]", 0.25],
  ["O=P([O-])(O)CN(CCN(CP(=O)([O-])O)CP(=O)(O)O)CP(=O)([O-])O.[153Sm+3]", 0.032]
]}

---

Test: biolocalization of the radionuclide in rats (tissue distribution after tail vein injection)
Format: in vivo, male Sprague Dawley rats
Conditions: Sm-153; two hours; comparative; ratio of percent dose per gram
// reported Bone/Blood for each item listed

{"columns": ["COMPOUND", "Bone/Blood"],
 "data": [
  ["O=P(O)(O)CP(=O)(O)O.[153Sm+3] [Sm-153 MDP, reference compound]", 9],
  ["O=P(O)(O)NP(=O)(O)O.[153Sm+3] [Sm-153 IDP, reference compound]", 11],
  ["O=P(O)(O)OP(=O)(O)O.[153Sm+3] [Sm-153 PYP, reference compound]", 7],
  ["CC(O)(P(=O)(O)O)P(=O)(O)O.[153Sm+3] [Sm-153 HEDP, reference compound]", 1]
]}

---

Assay: biolocalization of the radionuclide in rats (tissue distribution after tail vein injection)
Assay type: in vivo, male Sprague Dawley rats
Conditions: Sm-153; two hours; comparative; ratio of percent dose per gram

{"columns": ["MOLECULE", "Bone/Muscle"],
 "data": [
  ["O=P(O)(O)NP(=O)(O)O.[153Sm+3] [Sm-153 IDP, reference compound]", 8],
  ["O=P(O)(O)CP(=O)(O)O.[153Sm+3] [Sm-153 MDP, reference compound]", 7],
  ["CC(O)(P(=O)(O)O)P(=O)(O)O.[153Sm+3] [Sm-153 HEDP, reference compound]", 11],
  ["O=P(O)(O)OP(=O)(O)O.[153Sm+3] [Sm-153 PYP, reference compound]", 15]
]}
